# study-system: human SLC-1 (Homo sapiens, UniProt Q99705)
# Sequence (Q99705 whole entry): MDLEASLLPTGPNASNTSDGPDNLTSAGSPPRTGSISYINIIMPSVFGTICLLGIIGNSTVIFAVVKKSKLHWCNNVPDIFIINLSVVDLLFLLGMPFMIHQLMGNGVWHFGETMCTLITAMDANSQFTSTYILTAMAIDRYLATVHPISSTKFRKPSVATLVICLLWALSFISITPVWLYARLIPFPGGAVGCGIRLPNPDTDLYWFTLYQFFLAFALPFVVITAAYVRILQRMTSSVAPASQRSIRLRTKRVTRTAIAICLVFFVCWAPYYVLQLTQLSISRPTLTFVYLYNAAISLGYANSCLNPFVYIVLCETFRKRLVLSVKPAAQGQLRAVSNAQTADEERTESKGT
# method-summary: MCH receptor antagonistic activity (inhibitory activity, Experimental Example 1)
# Type: biochemical
reported-metric: IC50 (nM)

CC[C@@H](C)NCc1cnc2c(C)c(NC(=O)c3ccc(OC[C@@H]4CCCO4)cc3)ccc2c1 :: 6.8

P. CC[C@H](C)NCc1cnc2c(C)c(NC(=O)c3ccc(OC[C@@H]4CCCO4)cc3)ccc2c1
Q. Cc1c(NC(=O)c2ccc(OCC3CCOC3)cc2)ccc2cc(CNCC(C)(C)C)cnc12 (stereo not shown)
R. Cc1c(NC(=O)c2ccc(OC[C@@H]3CCCO3)cc2)ccc2cc(CNC[C@@H]3CCCO3)cnc12
List from greatest to least IC50. State the ranking by listing the labels in the requested order. P, R, Q

---

Measured melting point by item

CC[C@H](C)NCc1cnc2c(C)c(NC(=O)c3ccc(OC[C@@H]4CCCO4)cc3)ccc2c1 :: 122 to 123 °C
Cc1c(NC(=O)c2ccc(OC[C@@H]3CCCO3)cc2)ccc2cc(CNCC(C)(C)C)cnc12 :: 114 to 116 °C
COC(C)(C)CNCc1cnc2c(C)c(NC(=O)c3ccc(OCC4CCOC4)cc3)ccc2c1 (stereo not drawn) :: 137 °C
Cc1c(NC(=O)c2ccc(OC[C@H]3CCCO3)cc2)ccc2cc(CN[C@H]3CC[C@H](O)CC3)cnc12 :: 182 to 183 °C
Cc1c(NC(=O)c2ccc(OC[C@@H]3CCCO3)cc2F)ccc2cc(CN[C@H]3CC[C@](C)(O)CC3)cnc12 :: 171 to 172 °C

What melting point value was documented for this compound, `CC[C@@H](C)NCc1cnc2c(C)c(NC(=O)c3ccc(OC[C@@H]4CCCO4)cc3)ccc2c1` ? 118 to 119 °C

Please give the result for `Cc1c(NC(=O)c2ccc(OC[C@@H]3CCCO3)cc2)ccc2cc(CN[C@H](C)C(C)(C)C)cnc12` too. 140 to 141 °C

Further, for `Cc1c(NC(=O)c2ccc(OC[C@@H]3CCCO3)cc2)ccc2cc(CNCC3CCOCC3)cnc12` ? 92 to 94 °C

Repeat for the following compound: `Cc1c(NC(=O)c2ccc(OC[C@@H]3CCCO3)cc2)ccc2cc(CN3CCC(C)(O)CC3)cnc12` 169 to 174 °C

---

Reported melting point values are given for each entry in this list.

Cc1c(NC(=O)c2ccc(OC[C@@H]3CCCO3)cc2)ccc2cc(CN[C@H]3CC[C@H](O)CC3)cnc12 :: 183 to 184 °C

# get_value(readout='melting point', item= `Cc1c(NC(=O)c2ccc(OC[C@@H]3CCCO3)cc2)ccc2cc(CNC3CCOCC3)cnc12` ) 158 to 159 °C

Okay, and `Cc1c(NC(=O)c2ccc(OC[C@@H]3CCCO3)cc2)ccc2cc(CNC3CCC3)cnc12` ? 142 to 144 °C

Also check Cc1c(NC(=O)c2ccc(OCC3CCOC3)cc2)ccc2cc(CN3CCC(C)(O)CC3)cnc12 (centres unmarked) 160 to 162 °C

Same lookup for `Cc1c(NC(=O)c2ccc(OC[C@@H]3CCCO3)cc2F)ccc2cc(CNCC(C)C)cnc12` , please. 133 to 134 °C

Now consider `Cc1c(NC(=O)c2ccc(OC[C@@H]3CCCO3)cc2)ccc2cc(CN[C@@H]3CCCC[C@H]3O)cnc12` . 142 to 143 °C

And then Cc1c(NC(=O)c2ccc(OCC3CCOC3)cc2)ccc2cc(CNC(C)C)cnc12 (centres unmarked) , what is it? 106 °C

Also check `CCNCc1cnc2c(C)c(NC(=O)c3ccc(OC[C@@H]4CCCO4)cc3)ccc2c1` 149 to 151 °C

All values here come from patent US8383647B2.
